Items are presented alongside their recorded inhibition.
assaySummary: human hepatoma cell viability loss – ATP luminescence, cytotoxicity control for P. falciparum antimalarial project, primary screen (AID 2303);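 also: 0% = DMSO wells and 100% = digitonin-killed cells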
recordedConditions: HepG2 viability, 24-48 h, at 10 µM, hits give high values
Supply the numeric figure in %, leaving out any unit text.

// below: answered compounds
Just so you know, measured inhibition for `CCc1cn2c3c(cc(C(=O)N[C@@H](Cc4ccccc4)[C@H](O)CNCC(C)C)cc13)N(C)S(=O)(=O)CC2` came out at -1

Just so you know, measured inhibition for `COc1cccc2cc(C(=O)N[C@@H](CC(C)C)C(=O)N[C@H](/C=N/N(C)C(=O)OC(C)(C)C)CC(=O)OC(C)(C)C)oc12` came out at 5

Just so you know, measured inhibition for `COc1ccc2nccc([C@@H](O)CN3CCC(NCc4cc5ccccc5[nH]c4=O)CC3)c2c1` came out at -6

Just so you know, measured inhibition for N#Cc1ccc(NC(=NC2CCCc3ccccc32)Nc2ccc(-c3ccccc3)cc2)c(O)c1 (stereo not drawn) came out at 0

Others:
Just so you know, measured inhibition for `Cc1cc(NN=Cc2ccccc2Cl)c2cc(F)ccc2n1` came out at 5

Just so you know, measured inhibition for COc1ccc(C2CC(=O)C3=C(C2)NC(C)=C(C(=O)OC2CCCC2)C3c2cccc(O)c2)cc1 (stereo not drawn) came out at -6

Just so you know, measured inhibition for `CCNc1cc(C(=O)N[C@@H](Cc2ccccc2)[C@H](O)CNC(C)(C)CSCC(C)C)cc(N2CCCC2=O)c1` came out at -20

Just so you know, measured inhibition for CCN1CCC(N(Cc2ccc(-c3ccc(C(F)(F)F)cc3)cc2)C(=O)Cn2c(SCc3cccc(F)c3F)cc(=O)c3ccccc32)C1 (stereo not drawn) came out at 42

###

assaySummary: inhibition of 3D7 malaria parasite growth – strain 3D7 (AID 2306);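 also: 0% = DMSO wells and 100% = chloroquine plus artemisinin control wells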
recordedConditions: P. falciparum 3D7 erythrocytic growth, LDH absorbance, 72 h; at 2 µM; hits give high values
measuredAttribute: growth inhibition (%)
Supply the numeric figure in %, leaving out any unit text.

Just so you know, measured growth inhibition for `Cc1cc(Nc2ccc(Cl)cc2)n2nc(C(F)(F)F)nc2n1` came out at 97

Just so you know, measured growth inhibition for `C[C@H](Nc1c(Nc2ccc3[nH]ccc3c2)c(=O)c1=O)C1CCCCC1` came out at 96

Just so you know, measured growth inhibition for `Cc1ccc(Nc2nc(-c3ccccn3)cs2)nc1` came out at 94

Just so you know, measured growth inhibition for `CC(C)COc1ccc(Cl)cc1Cc1nc(-c2nc3ccc(CN(C)C)cc3[nH]2)co1` came out at 97

Please look at the following compound next.
Just so you know, measured growth inhibition for CC1(C(=O)Nc2ccc([N+](=O)[O-])cc2O)CC2c3ccccc3C1c1ccccc12 (stereo not given) came out at 98

###

testTarget: Protein kinase 7 (PK7), Plasmodium falciparum 3D7 (PF3D7_0213400) (UniProt Q7YTF7)
assaySummary: inhibition of Plasmodium PK7 catalytic activity – biochemical, TCAMS antimalarial set, Kinase-Glo luminescence (AID 1159587)
recordedConditions: recombinant PfPK7, Kinase-Glo ATP depletion luminescence
Activity calls are given as the source filed them. The rule behind the calls is not given here.
measuredAttribute: outcome

// below: answered compounds
Just so you know, measured outcome for `Cc1ccc(-c2nnc(-c3ccc(C(=O)NC4CCN(Cc5ccc(C#N)cc5)CC4)cc3)o2)cc1Br` came out at inactive

Just so you know, measured outcome for `NCCNc1ccnc2cc(Cl)ccc12` came out at inactive

Just so you know, measured outcome for `CCOc1ccc(Br)cc1/C=C/C(=O)Nc1ccc(C2CCN(C)CC2)cc1` came out at inactive

Just so you know, measured outcome for `O=C(Cn1c(SCc2cccc(F)c2F)cc(=O)c2ccccc21)N(CCn1ccnc1)Cc1ccc(-c2ccc(C(F)(F)F)cc2)cc1` came out at inactive

Others:
Just so you know, measured outcome for `CCCN(CCC)CCCN(CCCN(CCC)CCC)c1cc(C)nc(Nc2ccc3cc(Br)ccc3c2)n1` came out at inactive

Just so you know, measured outcome for `CN(C)C1CCN(CC#Cc2cc3ncnc(Nc4ccc(OCc5cccc(F)c5)c(Cl)c4)c3s2)CC1` came out at inactive

Just so you know, measured outcome for O=C(Nc1cc(F)cc(F)c1)N1CCOC(CCN2CCC3(CCc4ccccc43)CC2)(c2ccc(Cl)c(Cl)c2)C1 (stereo not drawn) came out at inactive

Just so you know, measured outcome for `N#Cc1c(N2CCCCCC2)nc(N)c2c(N)nc3c(c12)CC(=O)N3c1ccc(F)cc1` came out at inactive

Just so you know, measured outcome for `Cc1ccc(-c2nnc3c4ccccc4c(C)nn23)cc1S(=O)(=O)N1CCN(CCO)CC1` came out at inactive

Just so you know, measured outcome for `CC(=O)Nc1ccc(CN(C)C2CCN(c3cc(NC(=O)c4cccc(C)c4)ccn3)CC2)cc1` came out at inactive

Just so you know, measured outcome for `O=C(/C=C/c1ccc(Cl)c(Cl)c1)NCCCCCN1CCCN(C(=O)Nc2ccc(Cl)c(Cl)c2)CC1` came out at inactive

Just so you know, measured outcome for `CC(C)c1ccc(NC(=O)N[C@H]2CCN(CCCCCNC(=O)/C=C/c3ccc(Cl)c(Cl)c3)C2)cc1` came out at inactive

Just so you know, measured outcome for CC(CNc1nc(NCC(c2ccccc2)c2ccccc2)c2[nH]cnc2n1)c1ccccc1 (stereo not drawn) came out at inactive

Just so you know, measured outcome for `O=[N+]([O-])c1cccc(CNCC2CCN(CC3CCCCC3)CC2)c1` came out at inactive

Just so you know, measured outcome for `CCCC[C@H](NC(=O)O[C@H](COc1ccc(OCc2ccccc2)cc1)C(C)(C)C)C(=O)C(=O)Nc1ccn[nH]1` came out at inactive

Just so you know, measured outcome for `Oc1ccc(CCNc2nc(NCCCOc3cc(CN4CCCCC4)ccc3F)nc(N3CCNCC3)n2)cc1` came out at inactive

Just so you know, measured outcome for `O=C(NCCCCN1CCC(c2ccc3c(c2OCc2ccncc2)CCCC3)CC1)c1ccc(-c2ccc(C(F)(F)F)cc2)cc1` came out at inactive

Just so you know, measured outcome for `N#Cc1nc2ccc(OCCN(Cc3ccccc3C(F)(F)F)c3ccc(C#N)c(C(F)(F)F)c3)cc2s1` came out at inactive

Just so you know, measured outcome for `CCCc1cccc(C)c1OCCCON1C(N)=NC(N)=NC1(C)C` came out at inactive

Just so you know, measured outcome for `CCCCCN1CCN(Cc2cccc(NC(=O)c3ccc(Cl)c(Cl)c3)c2)CC1` came out at inactive

Just so you know, measured outcome for `C#CCCC(=O)Nc1cccc(-c2cccc(-c3nc4c(C)cccc4[nH]3)c2)c1` came out at inactive

###

assaySummary: human hepatoma cell viability loss – ATP luminescence, cytotoxicity control for P. falciparum antimalarial project, primary screen (AID 2303);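 also: 0% = DMSO wells and 100% = digitonin-killed cells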
recordedConditions: HepG2 viability, 24-48 h, at 10 µM, hits give high values
We'd kindly ask you to apply these inhibition classes: one: < 20%; two: ≥ 20% and < 50%; three: ≥ 50%

Q: Lab note: sort `Cc1cc(NCCCN2CCCC2=O)n2c(nc3ccccc32)c1C#N` into the matching inhibition band.
Result: one

Others:
Q: Lab note: sort CCC1CN2CCc3c([nH]c4ccc(OC)cc34)[C@@H]2C[C@@H]1CC1NCCc2cc(OC)c(OC)cc21 (stereo not given in full) into the matching inhibition band.
Result: one

Q: Lab note: sort `Brc1ccccc1CNc1ccnc(NCCn2ccnc2)n1` into the matching inhibition band.
Result: three

Q: Lab note: sort `CCN(CC)c1ccc(C(=O)Cn2ccc(=N)cc2)cc1` into the matching inhibition band.
Result: three

Q: Lab note: sort `CC(C)CNCc1cccc(-c2cccc(CN(CCCN3CCN(C)CC3)C(=O)NC3CCCCC3)c2)c1` into the matching inhibition band.
Result: one

Q: Lab note: sort `CCCCc1ccc2[nH]cc(C(=O)OCC)c(=O)c2c1` into the matching inhibition band.
Result: one

Q: Lab note: sort `CCCCNC(=O)c1cc(CNC2CCCCC2)ccc1-c1cccc(CNCc2ccc(-c3ccccc3)cc2)c1` into the matching inhibition band.
Result: three

Q: Lab note: sort `CC(C)Cn1c(Sc2ccc(C#N)c([N+](=O)[O-])c2)nnc1-c1ccc(N(C)C)cc1` into the matching inhibition band.
Result: one

Q: Lab note: sort CN(c1ccc(NC(=O)c2ccc(F)cc2)cc1)C1CCN(Cc2cccc(F)c2)C1 (stereo not given) into the matching inhibition band.
Result: one

Q: Lab note: sort `c1cc(CN2CCCCC2)cc(-c2cccc(-c3nc4ccccc4[nH]3)c2)c1` into the matching inhibition band.
Result: two

Q: Lab note: sort `CCN(CC)CCN(Cc1ccc(-c2ccc(C(F)(F)F)cc2)cc1)C(=O)Cn1cc(Cc2cnn(C)c2)c(=O)nc1/C=C/c1cccc(F)c1F` into the matching inhibition band.
Result: one

Q: Lab note: sort Cc1ccccc1C1CCN(C2CCC(NC(=O)/C=C/c3cccc(F)c3F)CC2)CC1 (stereo not given) into the matching inhibition band.
Result: three

Q: Lab note: sort COc1cccc(O)c1CN1CCC2(CCCN(Cc3ccc(F)cc3)C2)C1 (stereo not given) into the matching inhibition band.
Result: two

Q: Lab note: sort `CCNc1cc(C(=O)N[C@@H](Cc2ccccc2)[C@H](O)CNC2CCC(F)(F)CC2)c(F)c(N2CCCCS2(=O)=O)c1` into the matching inhibition band.
Result: one

Q: Lab note: sort `CC(C)COc1ccc(Cl)cc1Cc1ccc(-c2nc3c(F)c(F)ccc3[nH]2)o1` into the matching inhibition band.
Result: two

Q: Lab note: sort `O=C(Nc1nc(-c2ccccn2)cs1)c1ccc(Br)s1` into the matching inhibition band.
Result: two
